test: Metabolic stability in rat liver microsomes assessed as compound remaining after 10 mins; format: ADME, Microsome; details: read-out: Stability
Below, each entry is listed with its recorded remaining at 10 min.
experimental.readout: remaining at 10 min

INSERT INTO results (entry_smiles, recorded_result) VALUES
  ('FC(F)(F)c1ccccc1-c1ccc2[nH]c(/C=C/C3CCNCC3)nc2c1', '86%'),
  ('FC(F)(F)Oc1ccccc1-c1ccc2[nH]c(/C=C/C3CCCC3)nc2c1', '71%'),
  ('FC1(F)CCC(/C=C/c2nc3cc(-c4ccccc4C(F)(F)F)ccc3[nH]2)CC1', '100%'),
  ('COc1ccccc1-c1ccc2[nH]c(/C=C/C3CCCCC3)nc2c1', '10%'),
  ('CC1(/C=C/c2nc3cc(-c4ccccc4C(F)(F)F)ccc3[nH]2)CCOCC1', '20%'),
  ('FC(F)(F)c1ccccc1-c1ccc2[nH]c(/C=C/C3CCOCC3)nc2c1', '79%'),
  ('Cc1ccccc1-c1ccc2[nH]c(/C=C/C3CCCCC3)nc2c1', '15%'),
  ('O=S1(=O)CCC(/C=C/c2nc3cc(-c4ccccc4C(F)(F)F)ccc3[nH]2)CC1', '74%');
